Molecular target: human androgen receptor (hAR) (Homo sapiens)
Construct: made in house; host or cells: baculovirus/Sf9 insect cells (crude extract)
Sequence (P10275 whole entry): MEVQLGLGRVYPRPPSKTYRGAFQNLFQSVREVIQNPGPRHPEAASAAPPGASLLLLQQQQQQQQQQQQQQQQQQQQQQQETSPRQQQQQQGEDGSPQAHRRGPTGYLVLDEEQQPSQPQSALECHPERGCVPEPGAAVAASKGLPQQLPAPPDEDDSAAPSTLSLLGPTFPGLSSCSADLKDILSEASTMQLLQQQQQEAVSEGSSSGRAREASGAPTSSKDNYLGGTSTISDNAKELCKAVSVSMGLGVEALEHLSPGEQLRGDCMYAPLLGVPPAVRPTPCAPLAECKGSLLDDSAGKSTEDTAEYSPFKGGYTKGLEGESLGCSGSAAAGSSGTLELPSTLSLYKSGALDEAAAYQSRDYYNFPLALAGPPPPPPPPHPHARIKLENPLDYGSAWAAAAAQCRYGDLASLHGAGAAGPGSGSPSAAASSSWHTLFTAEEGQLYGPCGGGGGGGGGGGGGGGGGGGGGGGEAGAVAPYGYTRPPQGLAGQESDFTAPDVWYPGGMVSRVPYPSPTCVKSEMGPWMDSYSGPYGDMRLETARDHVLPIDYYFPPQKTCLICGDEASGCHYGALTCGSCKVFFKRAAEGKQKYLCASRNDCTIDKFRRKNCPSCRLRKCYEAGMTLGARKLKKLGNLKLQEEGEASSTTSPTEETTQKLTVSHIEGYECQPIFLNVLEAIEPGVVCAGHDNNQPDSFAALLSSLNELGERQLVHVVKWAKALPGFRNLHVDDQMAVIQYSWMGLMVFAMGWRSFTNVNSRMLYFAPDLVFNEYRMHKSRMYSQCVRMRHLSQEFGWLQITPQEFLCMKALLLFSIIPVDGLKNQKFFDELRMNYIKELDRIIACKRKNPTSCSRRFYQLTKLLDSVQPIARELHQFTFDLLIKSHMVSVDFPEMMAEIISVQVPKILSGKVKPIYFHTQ
Assay: Competitive binding analysis on baculovirus/Sf9 generated hAR extracts with 3H-DHT tracer
Conditions: AR Binding IC50 (nM), hAR extract, 1 nM 3H-DHT, one hour at 4° C; mean of multiple tests
Protocol: The compounds of Formula I have affinity for the androgen receptor. […] The description below describes how the assay was carried out. Competitive binding analysis was performed on baculovirus/Sf9 generated hAR extracts in the presence or absence of different concentrations of test agent and a fixed concentration of ^3H-dihydrotestosterone (^3H-DHT) as tracer. […] Compound binding affinity to the hAR is expressed as the concentration of compound at which one half of the maximum binding is inhibited. […]
PROPERTY_LABEL: log10(IC50) (log10 of the value in nM)

- COMPOUND: "CCCC(Oc1ccc(C#N)c(C(F)(F)F)c1)C(=O)NCCc1ccc(O)cc1 (centres unmarked)"
  ENDPOINT_VALUE: 2.18
- COMPOUND: "CCC[C@@H](Oc1ccc(C#N)c(C(F)(F)F)c1)C(=O)NCc1ccccc1C"
  ENDPOINT_VALUE: 1.98
- COMPOUND: "CC(C)C[C@@H](Oc1ccc(C#N)c(C(F)(F)F)c1)C(=O)NCc1ccccc1"
  ENDPOINT_VALUE: 1.82
- COMPOUND: "CCC(Oc1ccc(C#N)c(C(F)(F)F)c1)C(=O)NCc1ccccc1 (centres unmarked)"
  ENDPOINT_VALUE: 2.69
- COMPOUND: "CC(C)CC(Oc1ccc(C#N)c(C(F)(F)F)c1)C(=O)NCc1ccccc1 (centres unmarked)"
  ENDPOINT_VALUE: 1.98
- COMPOUND: "CCC[C@@H](Oc1ccc(C#N)c(C(F)(F)F)c1)C(=O)NCc1ccccc1"
  ENDPOINT_VALUE: 2.10
- COMPOUND: "CCCC(Oc1ccc(C#N)c(C(F)(F)F)c1)C(=O)NCc1ccccc1 (centres unmarked)"
  ENDPOINT_VALUE: 2.65
- COMPOUND: "CCCC(Oc1ccc(C#N)c(C(F)(F)F)c1)C(=O)NCc1ccccc1C (centres unmarked)"
  ENDPOINT_VALUE: 1.62
